MEASUREMENT TARGET: Poly [ADP-ribose] polymerase tankyrase-1 (Homo sapiens, UniProt O95271)
Sequence (O95271 whole entry): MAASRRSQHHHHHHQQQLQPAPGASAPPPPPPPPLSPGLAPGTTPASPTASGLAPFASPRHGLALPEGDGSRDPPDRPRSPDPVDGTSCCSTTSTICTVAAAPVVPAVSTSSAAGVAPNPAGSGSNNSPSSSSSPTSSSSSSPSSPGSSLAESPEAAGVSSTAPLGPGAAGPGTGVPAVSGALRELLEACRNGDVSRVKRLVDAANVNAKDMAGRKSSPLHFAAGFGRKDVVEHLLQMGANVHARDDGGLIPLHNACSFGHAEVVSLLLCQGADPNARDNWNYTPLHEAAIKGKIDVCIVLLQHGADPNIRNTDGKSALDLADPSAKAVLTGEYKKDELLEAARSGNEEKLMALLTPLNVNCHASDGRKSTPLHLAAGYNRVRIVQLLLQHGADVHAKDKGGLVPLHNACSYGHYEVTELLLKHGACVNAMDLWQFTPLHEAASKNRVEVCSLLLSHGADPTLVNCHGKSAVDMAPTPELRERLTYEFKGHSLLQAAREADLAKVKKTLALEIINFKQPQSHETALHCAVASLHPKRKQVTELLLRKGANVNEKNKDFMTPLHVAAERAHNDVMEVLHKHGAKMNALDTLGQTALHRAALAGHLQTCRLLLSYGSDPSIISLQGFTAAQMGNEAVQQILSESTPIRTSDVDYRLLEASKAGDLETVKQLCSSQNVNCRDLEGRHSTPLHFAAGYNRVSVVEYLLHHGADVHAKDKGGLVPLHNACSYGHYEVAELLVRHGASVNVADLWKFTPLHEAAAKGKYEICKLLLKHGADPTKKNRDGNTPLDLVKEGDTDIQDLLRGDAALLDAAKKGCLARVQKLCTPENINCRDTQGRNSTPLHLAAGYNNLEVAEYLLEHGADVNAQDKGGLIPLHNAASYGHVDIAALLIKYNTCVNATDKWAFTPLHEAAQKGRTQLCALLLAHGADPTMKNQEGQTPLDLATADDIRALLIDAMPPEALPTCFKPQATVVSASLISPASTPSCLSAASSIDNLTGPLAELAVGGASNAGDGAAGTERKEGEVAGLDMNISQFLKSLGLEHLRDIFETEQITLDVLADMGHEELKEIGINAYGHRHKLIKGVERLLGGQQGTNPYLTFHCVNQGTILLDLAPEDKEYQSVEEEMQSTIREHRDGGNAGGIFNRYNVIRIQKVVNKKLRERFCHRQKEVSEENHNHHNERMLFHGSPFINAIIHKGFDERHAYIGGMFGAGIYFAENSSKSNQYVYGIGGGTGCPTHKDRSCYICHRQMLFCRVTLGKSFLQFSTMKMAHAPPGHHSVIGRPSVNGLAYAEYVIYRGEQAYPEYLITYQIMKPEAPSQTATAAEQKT
QUANTITY MEASURED: IC50 (nM)

sample_smiles=C[C@@H](C(=O)N1CCN(c2ncc(C(F)(F)F)cn2)CC1)n1cc2cccc(C(N)=O)c2n1 measurement_target="Poly [ADP-ribose] polymerase tankyrase-1 (Homo sapiens, UniProt O95271)" measurement_unit=nM observed=901

====

PROTOCOL DETAILS: Apparent volume of distribution in ICR mouse at 1 mg/kg, iv measured upto 24 hrs by LC-MS/MS analysis
Type: ADME, organism-based
CONDITION SUMMARY: in vivo, read-out: Vz
QUANTITY MEASURED: Vd

sample_smiles=C[C@@H](C(=O)N1CCN(c2ncc(C(F)(F)F)cn2)CC1)n1cc2cccc(C(N)=O)c2n1 observed="0.978 L/kg"
